# System: Candida
# assayNotes: 90% inhibitory activity against Candida. species (40 clinical isolates) determined at pH-7.2
# Assay type: functional

>  <compound>
Cc1ccc(C(c2c[nH]cc2-c2ccc(Cl)cc2Cl)n2ccnc2)cc1 (stereo not given)

>  <qual>
>

>  <MIC90 / µg/mL>
256

$$$$
>  <compound>
Clc1ccc(-c2c[nH]cc2C(c2ccc(Cl)cc2Cl)n2ccnc2)cc1 (stereo not given)

>  <qual>
=

>  <MIC90 / µg/mL>
128

$$$$
>  <compound>
c1ccc(-c2c[nH]cc2C(c2ccc(-n3cccc3)cc2)n2ccnc2)cc1 (stereo not given)

>  <qual>
=

>  <MIC90 / µg/mL>
64

$$$$
>  <compound>
O=[N+]([O-])c1ccc(C(c2c[nH]cc2-c2ccc(Cl)cc2Cl)n2ccnc2)cc1 (stereo not given)

>  <qual>
>

>  <MIC90 / µg/mL>
256

$$$$
>  <compound>
Clc1ccc(C(c2c[nH]cc2-c2ccccc2Cl)n2ccnc2)c(Cl)c1 (stereo not given)

>  <qual>
=

>  <MIC90 / µg/mL>
32

$$$$
>  <compound>
Clc1ccc(-c2c[nH]cc2C(c2ccccc2)n2ccnc2)cc1 (stereo not given)

>  <qual>
=

>  <MIC90 / µg/mL>
128

$$$$
>  <compound>
Clc1ccc(C(c2c[nH]cc2-c2ccc(Cl)cc2Cl)n2ccnc2)cc1 (stereo not given)

>  <qual>
>

>  <MIC90 / µg/mL>
256

$$$$
>  <compound>
Fc1ccc(C(c2c[nH]cc2-c2ccc(Cl)c(Cl)c2)n2ccnc2)cc1 (stereo not given)

>  <qual>
=

>  <MIC90 / µg/mL>
32

$$$$
>  <compound>
Clc1ccc(-c2c[nH]cc2C(c2ccc(-n3cccc3)cc2)n2ccnc2)cc1Cl (stereo not given)

>  <qual>
>

>  <MIC90 / µg/mL>
256

$$$$
>  <compound>
Clc1ccc(-c2c[nH]cc2C(c2ccc(-c3ccccc3)cc2)n2ccnc2)cc1 (stereo not given)

>  <qual>
>

>  <MIC90 / µg/mL>
256

$$$$

----------
# Tested on: Candida
# assayNotes: Inhibitory activity against Candida. species (40 clinical isolates), determined at pH-5.8
# Assay type: functional
propertyMeasured: log10 of MIC90 (log10 of the value in µg/mL)

>  <compound>
Nc1ccc(C(c2c[nH]cc2-c2ccc(Cl)cc2)n2ccnc2)cc1 (stereo unspecified)

>  <propertyMeasured>
log10 of MIC90

>  <number>
1.92

$$$$
>  <compound>
Clc1ccc(-c2c[nH]cc2C(c2ccc(Cl)cc2Cl)n2ccnc2)cc1 (stereo unspecified)

>  <propertyMeasured>
log10 of MIC90

>  <number>
1.51

$$$$
>  <compound>
Clc1ccc(-c2c[nH]cc2C(c2ccc(Cl)cc2)n2ccnc2)cc1 (stereo unspecified)

>  <propertyMeasured>
log10 of MIC90

>  <number>
1.51

$$$$
>  <compound>
Fc1ccc(C(c2c[nH]cc2-c2ccc(Cl)c(Cl)c2)n2ccnc2)cc1 (stereo unspecified)

>  <propertyMeasured>
log10 of MIC90

>  <number>
1.51

$$$$
>  <compound>
Clc1ccc(C(c2c[nH]cc2-c2ccccc2)n2ccnc2)cc1 (stereo unspecified)

>  <propertyMeasured>
log10 of MIC90

>  <number>
1.81

$$$$
>  <compound>
c1ccc(-c2c[nH]cc2C(c2ccc(-n3cccc3)cc2)n2ccnc2)cc1 (stereo unspecified)

>  <propertyMeasured>
log10 of MIC90

>  <number>
1.81

$$$$
>  <compound>
Clc1ccc(-c2c[nH]cc2C(c2ccc(-n3cccc3)cc2)n2ccnc2)c(Cl)c1 (stereo unspecified)

>  <propertyMeasured>
log10 of MIC90

>  <number>
1.51

$$$$
>  <compound>
Cc1ccc(C(c2c[nH]cc2-c2ccccc2)n2ccnc2)cc1 (stereo unspecified)

>  <propertyMeasured>
log10 of MIC90

>  <number>
2.41

$$$$
>  <compound>
Clc1ccc(-c2c[nH]cc2C(c2ccccc2)n2ccnc2)cc1 (stereo unspecified)

>  <propertyMeasured>
log10 of MIC90

>  <number>
1.51

$$$$
>  <compound>
Clc1ccccc1-c1c[nH]cc1C(c1ccc(-n2cccc2)cc1)n1ccnc1 (stereo unspecified)

>  <propertyMeasured>
log10 of MIC90

>  <number>
1.51

$$$$
>  <compound>
Clc1ccc(C(c2c[nH]cc2-c2ccc(Cl)c(Cl)c2)n2ccnc2)c(Cl)c1 (stereo unspecified)

>  <propertyMeasured>
log10 of MIC90

>  <number>
1.51

$$$$
>  <compound>
Clc1ccc(-c2c[nH]cc2C(c2ccc(-c3ccccc3)cc2)n2ccnc2)cc1 (stereo unspecified)

>  <propertyMeasured>
log10 of MIC90

>  <number>
2.11

$$$$
>  <compound>
Clc1ccc(C(c2c[nH]cc2-c2ccccc2Cl)n2ccnc2)cc1 (stereo unspecified)

>  <propertyMeasured>
log10 of MIC90

>  <number>
1.81

$$$$
>  <compound>
Clc1ccc(C(c2c[nH]cc2-c2ccccc2Cl)n2ccnc2)c(Cl)c1 (stereo unspecified)

>  <propertyMeasured>
log10 of MIC90

>  <number>
1.20

$$$$
>  <compound>
Clc1ccc(-c2c[nH]cc2C(c2cccc3ccccc23)n2ccnc2)cc1 (stereo unspecified)

>  <propertyMeasured>
log10 of MIC90

>  <number>
1.51

$$$$
>  <compound>
Clc1ccc(C(c2c[nH]cc2-c2ccccc2Cl)n2ccnc2)cc1Cl (stereo unspecified)

>  <propertyMeasured>
log10 of MIC90

>  <number>
1.51

$$$$
>  <compound>
Cc1ccc(C(c2c[nH]cc2-c2ccccc2Cl)n2ccnc2)cc1 (stereo unspecified)

>  <propertyMeasured>
log10 of MIC90

>  <number>
1.81

$$$$
>  <compound>
Cc1ccc(C(c2c[nH]cc2-c2ccc(Cl)cc2Cl)n2ccnc2)cc1 (stereo unspecified)

>  <propertyMeasured>
log10 of MIC90

>  <number>
1.51

$$$$
>  <compound>
O=[N+]([O-])c1ccc(C(c2c[nH]cc2-c2ccccc2Cl)n2ccnc2)cc1 (stereo unspecified)

>  <propertyMeasured>
log10 of MIC90

>  <number>
1.81

$$$$
>  <compound>
Clc1ccc(-c2c[nH]cc2C(c2ccccc2)n2ccnc2)cc1Cl (stereo unspecified)

>  <propertyMeasured>
log10 of MIC90

>  <number>
1.51

$$$$
>  <compound>
Clc1ccc(C(c2c[nH]cc2-c2ccc(Cl)cc2Cl)n2ccnc2)cc1 (stereo unspecified)

>  <propertyMeasured>
log10 of MIC90

>  <number>
1.20

$$$$
>  <compound>
Clc1ccc(C(c2c[nH]cc2-c2ccccc2)n2ccnc2)cc1Cl (stereo unspecified)

>  <propertyMeasured>
log10 of MIC90

>  <number>
1.81

$$$$
>  <compound>
CC(=O)N1CCN(c2ccc(OC[C@H]3CO[C@](Cn4ccnc4)(c4ccc(Cl)cc4Cl)O3)cc2)CC1

>  <propertyMeasured>
log10 of MIC90

>  <number>
1.51

$$$$
>  <compound>
c1ccc(-c2ccc(C(c3ccccc3)n3ccnc3)cc2)cc1 (stereo unspecified)

>  <propertyMeasured>
log10 of MIC90

>  <number>
0.90

$$$$
>  <compound>
Fc1ccc(C(c2c[nH]cc2-c2ccccc2)n2ccnc2)cc1 (stereo unspecified)

>  <propertyMeasured>
log10 of MIC90

>  <number>
2.11

$$$$
>  <compound>
Clc1ccc(-c2c[nH]cc2C(c2ccc(Cl)cc2Cl)n2ccnc2)c(Cl)c1 (stereo unspecified)

>  <propertyMeasured>
log10 of MIC90

>  <number>
1.51

$$$$
>  <compound>
Clc1ccc(C(c2c[nH]cc2-c2ccc(Cl)c(Cl)c2)n2ccnc2)cc1 (stereo unspecified)

>  <propertyMeasured>
log10 of MIC90

>  <number>
1.81

$$$$
>  <compound>
Clc1ccc(COC(Cn2ccnc2)c2ccc(Cl)cc2Cl)c(Cl)c1 (stereo unspecified)

>  <propertyMeasured>
log10 of MIC90

>  <number>
1.51

$$$$
>  <compound>
Fc1ccc(C(c2c[nH]cc2-c2ccc(Cl)cc2)n2ccnc2)cc1 (stereo unspecified)

>  <propertyMeasured>
log10 of MIC90

>  <number>
1.51

$$$$
>  <compound>
Cc1ccc(C(c2c[nH]cc2-c2ccc(Cl)c(Cl)c2)n2ccnc2)cc1 (stereo unspecified)

>  <propertyMeasured>
log10 of MIC90

>  <number>
1.20

$$$$
>  <compound>
Nc1ccc(C(c2c[nH]cc2-c2ccccc2Cl)n2ccnc2)cc1 (stereo unspecified)

>  <propertyMeasured>
log10 of MIC90

>  <number>
2.41

$$$$
>  <compound>
Clc1ccc(-c2c[nH]cc2C(c2ccc(Cl)c(Cl)c2)n2ccnc2)cc1 (stereo unspecified)

>  <propertyMeasured>
log10 of MIC90

>  <number>
1.81

$$$$
>  <compound>
O=[N+]([O-])c1ccc(C(c2c[nH]cc2-c2ccc(Cl)cc2Cl)n2ccnc2)cc1 (stereo unspecified)

>  <propertyMeasured>
log10 of MIC90

>  <number>
1.51

$$$$
>  <compound>
Clc1ccccc1-c1c[nH]cc1C(c1ccccc1)n1ccnc1 (stereo unspecified)

>  <propertyMeasured>
log10 of MIC90

>  <number>
1.51

$$$$

// provenance: ChEMBL document CHEMBL1128323
